Data origin, for the record: patent US10662204B2

# system_name: KRAS G12C (Homo sapiens, UniProt P01116, G12C)
# assay_protocol: Cell Activity Assay: accumulation of GDP-bound KRAS G12C in MIAPaCa-2 cells (Raf-1 RBD capture, MSD readout)
# Type: cell-based
# Parameters: endogenous in cells; host or cells: MIAPaCa-2
# experimental_context: 6 hours, assay limit is 30.00
measured_endpoint: IC50 (µM)

query: Please give the measured IC50 for this molecule: C=CC(=O)N1CCN(c2nc(O[C@@H]3CN(CCO)C[C@H]3OC)nc3c(Oc4c(Cl)c(F)cc5[nH]ncc45)nccc23)CC1 [Example 46I]
result: 0.285

P = C=CC(=O)N1CCN(c2nc(OCCNC(C)=O)nc3c(Oc4c(C)ccc5[nH]ncc45)cccc23)CC1 [Example 17F]
Q = C=CC(=O)N1CCN(c2nc(Oc3cccc4c3CCN(C)C4)nc3c(Oc4c(Cl)ccc5[nH]ncc45)nccc23)CC1 [Example 48I]
query: Please indicate which has the smaller reported IC50: P , or Q . Label of pick, please.
result: Q

a = C=CC(=O)N1CCN(c2nc(O[C@@H]3CN(C(C)(C)C)C[C@H]3OC)nc3c(Oc4c(Cl)c(F)cc5[nH]ncc45)nccc23)CC1 [Example 52I]
b = C=CC(=O)N1CCN(c2nc(O[C@@H]3CN(C)C[C@@H]3OC)nc3c(Oc4c(Cl)c(F)cc5[nH]ncc45)nc(Cl)cc23)CC1 (racemic) [Example 26G]
c = C=CC(=O)N1CCN(c2nc(NCc3ncc[nH]3)nc3c(Oc4c(C)ccc5[nH]ncc45)cccc23)CC1 [Example 20F]
query: Please list the entries, largest IC50 first. Output spec: a listing of the labels in the requested order.
result: c, b, a
(c: 2.99 µM, b: 0.195 µM, a: 0.023 µM)

* * *

# system_name: KRAS G12C (Homo sapiens, UniProt P01116, G12C)
# assay_protocol: Cell Activity Assay: accumulation of GDP-bound KRAS G12C in MIAPaCa-2 cells (Raf-1 RBD capture, MSD readout)
# Assay type: cell-based
# Parameters: endogenous in cells; host or cells: MIAPaCa-2
# experimental_context: 6 hours, assay limit is 30.00
measured_endpoint: IC50 (µM)

I = C=CC(=O)N1CCN(c2nc(N3CC(N(C)C)C3)nc3c(Oc4c(Cl)c(C)cc5[nH]ncc45)cc(Cl)cc23)CC1 [Example 11E]
II = C=CC(=O)N1CCN(c2ncnc3c(Oc4c(C)c(Cl)cc5[nH]ncc45)cccc23)CC1CC#N (stereo not shown) [Example 22C]
III = C=CC(=O)N1CCN(c2nc(O[C@@H]3CN(C)C[C@H]3OC)nc3c(Oc4c(Cl)c(Cl)cc5[nH]ncc45)nccc23)CC1 [Example 19H]
query: Put these in order: smallest IC50 first, largest last. The labels, placed in the requested order, form the answer.
result: III, I, II

* * *

# system_name: KRAS G12C (Homo sapiens, UniProt P01116, G12C)
# assay_protocol: Cell Activity Assay: accumulation of GDP-bound KRAS G12C in MIAPaCa-2 cells (Raf-1 RBD capture, MSD readout)
# Format: cell-based
# Set-up: endogenous in cells; host or cells: MIAPaCa-2
# experimental_context: 6 hours, assay limit is 30.00
measured_endpoint: IC50 (µM)

query: GET /values?readout=IC50&item= C=CC(=O)N1CCN(c2nc(NCC3CCC(=O)N3)nc3c(Oc4c(C)ccc5[nH]ncc45)cccc23)CC1 (stereo not shown) [Example 12F]
result: 29.1

query: For C=CC(=O)N1CCN(c2nc(OC3CN(C)CC34CC4)nc3c(Oc4c(Cl)c(F)cc5[nH]ncc45)nc(Cl)cc23)CC1 (stereo not shown) [Example 36G] , what is its reported IC50?
result: 0.109

a = C=CC(=O)N1CCN(c2nc(OC[C@@H]3C[C@H](OC)CN3C)nc3c(Oc4c(Cl)c(F)cc5[nH]ncc45)nc(Cl)cc23)CC1 [Example 20G]
b = C=CC(=O)N1CCN(c2ncnc3c(Oc4c(CC)ccc5[nH]ncc45)nccc23)CC1 [Example 07A]
c = C=CC(=O)N1CCN(c2ncnc3c(Oc4c(Cl)c(Cl)cc5[nH]ncc45)nccc23)CC1 [Example 29A]
d = C=CC(=O)N1CCN(c2ncnc3c(Oc4c(Cl)c(F)cc5[nH]ncc45)nc(Cl)cc23)[C@H](C)C1 [Example 40A]
query: Order the records so the highest IC50 appears first and the lowest last. List each label, following the requested order.
result: d, b, c, a

* * *

# system_name: KRAS G12C (Homo sapiens, UniProt P01116, G12C)
# assay_protocol: Cell Activity Assay: accumulation of GDP-bound KRAS G12C in MIAPaCa-2 cells (Raf-1 RBD capture, MSD readout)
# Format: cell-based
# Set-up: endogenous in cells; host or cells: MIAPaCa-2
# experimental_context: 6 hours, assay limit is 30.00
measured_endpoint: IC50 (µM)

Worked cases, answers included:
query: Endpoint output: IC50 of C=CC(=O)N1CCN(c2nc(OC[C@H]3CCCO3)nc3c(Oc4c(Cl)c(F)cc5[nH]ncc45)nccc23)CC1 [Example 06H] . Value?
result: 0.611

query: Give its IC50 value. Item: C=CC(=O)N1CCN(c2nc(N3CC(N(C)C)C3)nc3c(Oc4c(C)ccc5[nH]ncc45)cccc23)CC1 [Example 02E]
result: 6.46

query: Query: IC50; subject: C=CC(=O)N1CCN(c2ncnc3c(Oc4c(C)ccc5[nH]ncc45)nc(C#N)cc23)CC1 [Example 18A]
result: 6.45

I = C=CC(=O)N1CCN(c2nc(N3CC(N(C)C)C3)nc3c(Oc4c(C)ccc5[nH]ncc45)nccc23)CC1 [Example 02B]
II = C=CC(=O)N1CCN(c2ncnc3c(Oc4c(C)c(Cl)cc5[nH]ncc45)nccc23)C[C@@H]1C [Example 23A]
III = C=CC(=O)N1CCN(c2nc(OC[C@H]3CCOC3)nc3c(Oc4c(Cl)c(F)cc5[nH]ncc45)nccc23)CC1 [Example 04H]
IV = C=CC(=O)N1CCN(c2nc(OC[C@@H]3C[C@H](OC)CN3C)nc3c(Oc4c(Cl)c(F)cc5[nH]ncc45)nccc23)CC1 [Example 12H]
query: Form: Sort by [IC50] Order [ ascending ] Answer by naming the labels in the order asked.
result: III, IV, I, II

* * *

# system_name: GDP-loaded KRAS (1-169) G12C, C51S, C80L, C118S (Homo sapiens, UniProt P01116, C118S/C51S/C80L/G12C)
# Construct: GDP-loaded KRAS (1-169) G12C, C51S, C80L, C118S
# assay_protocol: Mass Spectrometry Reactivity Assay (MSRA): covalent adduct of compound and KRAS G12C, Percent Modification
# Type: binding
# experimental_context: 10 μM compound, 0.50 hr
measured_endpoint: MSRA (% modification) 10 μM 0.50 hr (%)

query: If you can, please state the reported MSRA (% modification) 10 μM 0.50 hr value of C=CC(=O)N1C[C@H](C)N(c2nc(N3CC(N(C)C)C3)nc3c(Oc4c(C)ccc5[nH]ncc45)nc(C)cc23)C[C@H]1C [Example 06B] .
result: 9

query: Requested field: MSRA (% modification) 10 μM 0.50 hr. Item: C=CC(=O)N1CCN(c2nc(NCCC(=O)N(C)C)nc3c(Oc4c(C)ccc5[nH]ncc45)cccc23)CC1 [Example 06F]
result: 46

query: Please report the recorded MSRA (% modification) 10 μM 0.50 hr for C=CC(=O)N1CCN(c2ncnc3c(Oc4c(C)c(Cl)cc5[nH]ncc45)nc(C#N)cc23)C[C@@H]1C [Example 33A] .
result: 34

query: Please give the measured MSRA (% modification) 10 μM 0.50 hr for this compound: C=CC(=O)N1CCN(c2ncnc3c(Oc4c(C)ccc5[nH]ncc45)cccc23)CC1 [Example 01C]
result: 18

query: Which MSRA (% modification) 10 μM 0.50 hr is reported for this compound? C=CC(=O)N1CCN(c2nc(OCCN(C)C)nc3c(Oc4c(Cl)c(C)cc5[nH]ncc45)nccc23)CC1 [Example 05E]
result: 76

query: Need MSRA (% modification) 10 μM 0.50 hr, item C=CC(=O)N1CCN(c2nc(NCC3CCC(=O)N3)nc3c(Oc4c(C)ccc5[nH]ncc45)cccc23)CC1 (centres unmarked) [Example 12F]
result: 20

a = C=CC(=O)N1CCN(c2ncnc3c(Oc4c(C)ccc5[nH]ncc45)nccc23)[C@@H](C)C1 [Example 10A]
b = C=CC(=O)N1CCN(c2ncnc3c(Oc4c(Cl)c(F)cc5[nH]ncc45)nc(Cl)cc23)CC1 [Example 20A]
query: Which is greater in MSRA (% modification) 10 μM 0.50 hr, the first item a or the second item b ? Could you answer with the label of the item you picked?
result: b
(b: 80%, a: 10%)

A = C=CC(=O)N1CCN(c2ncnc3c(Oc4c(C)ccc5[nH]ncc45)nc(C)cc23)CC1 [Example 02A]
B = C=CC(=O)N1CCN(c2nc(N3CC(N(C)C)C3)nc3c(Oc4c(C)ccc5[nH]ncc45)cccc23)CC1 [Example 02E]
C = C=CC(=O)N1CCN(c2nc(OC[C@H]3COCCN3C)nc3c(Oc4c(Cl)c(F)cc5[nH]ncc45)nccc23)CC1 [Example 10H]
D = C=CC(=O)N1CCN(c2nc(N(C)CCC(=O)N(C)C)nc3c(Oc4c(C)ccc5[nH]ncc45)cccc23)CC1 [Example 05F]
query: Ordering: ascending MSRA (% modification) 10 μM 0.50 hr. Use the labels to give the requested order.
result: A, D, B, C

a = C=CC(=O)N1CCN(c2ncnc3c(Oc4c(CC)ccc5[nH]ncc45)nccc23)CC1 [Example 07A]
b = C=CC(=O)N1CCN(c2ncnc3c(Oc4c(C)ccc5[nH]ncc45)nc(Cl)cc23)CC1 [Example 09A]
c = C=CC(=O)N1CCN(c2ncnc3c(Oc4c(Cl)c(F)cc5[nH]ncc45)nc(C#N)cc23)CC1 [Example 32A]
d = C=CC(=O)N1CCN(c2nc(N3CCN(C)CC3)nc3c(Oc4c(C)ccc5[nH]ncc45)nccc23)CC1 [Example 03B]
query: Rank by MSRA (% modification) 10 μM 0.50 hr (largest to smallest). Reply with the item labels sorted in the order that was asked for.
result: c, b, a, d
